Recorded inhibition at 0.01 µg/mL by entry
Biological target: HBV polymerase (Hepatitis B virus genotype A2 subtype adw2, UniProt P03159)
Construct: made in house; host or cells: E. coli
Sequence (P03159 whole entry): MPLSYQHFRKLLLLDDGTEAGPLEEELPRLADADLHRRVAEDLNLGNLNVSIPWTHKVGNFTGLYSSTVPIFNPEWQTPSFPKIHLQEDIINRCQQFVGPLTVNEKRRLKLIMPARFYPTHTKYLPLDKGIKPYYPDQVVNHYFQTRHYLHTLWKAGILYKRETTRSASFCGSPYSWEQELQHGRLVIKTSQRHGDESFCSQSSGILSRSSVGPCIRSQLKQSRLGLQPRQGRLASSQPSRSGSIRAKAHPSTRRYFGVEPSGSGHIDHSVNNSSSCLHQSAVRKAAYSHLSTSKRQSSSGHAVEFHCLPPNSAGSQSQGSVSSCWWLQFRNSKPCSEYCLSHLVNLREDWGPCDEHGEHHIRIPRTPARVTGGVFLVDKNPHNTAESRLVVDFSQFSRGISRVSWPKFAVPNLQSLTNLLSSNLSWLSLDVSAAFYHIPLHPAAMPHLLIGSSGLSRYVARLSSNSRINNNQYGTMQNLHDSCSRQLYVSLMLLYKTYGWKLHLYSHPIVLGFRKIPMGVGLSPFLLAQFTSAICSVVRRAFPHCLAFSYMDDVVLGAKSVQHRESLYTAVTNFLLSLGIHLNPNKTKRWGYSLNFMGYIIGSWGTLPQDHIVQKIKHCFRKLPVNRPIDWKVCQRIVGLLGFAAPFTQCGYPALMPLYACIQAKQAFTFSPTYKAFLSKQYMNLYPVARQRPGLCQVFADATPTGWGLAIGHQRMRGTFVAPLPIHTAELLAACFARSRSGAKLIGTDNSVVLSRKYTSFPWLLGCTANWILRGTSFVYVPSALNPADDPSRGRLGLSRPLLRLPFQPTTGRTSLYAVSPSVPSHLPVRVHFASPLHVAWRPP
Experiment: In vitro reverse transcription activity of HBV polymerase (ELISA-type, DIG/biotin nucleotides)
Format: biochemical
Conditions: 0.01 μg/ml test compound; read-out: Inhibition activity on HBV-RT (%)
endpoint: inhibition at 0.01 µg/mL (%)

[
  {
    "smiles-repr": "COC(=O)[C@@H](NC(=O)c1cnc(SC)nc1Nc1ccc2cn[nH]c2c1)[C@@H](C)O",
    "assay-value": 50
  },
  {
    "smiles-repr": "CSc1ncc(C(=O)N2CCN(CCO)CC2)c(Nc2ccc3[nH]ncc3c2)n1",
    "assay-value": 11
  },
  {
    "smiles-repr": "CSc1ncc(C(=O)NCCc2ccccn2)c(Nc2ccc3[nH]ncc3c2)n1",
    "assay-value": 48
  },
  {
    "smiles-repr": "CSc1ncc(C(=O)N2CCN(C)CC2)c(Nc2ccc3[nH]ncc3c2)n1",
    "assay-value": 43
  },
  {
    "smiles-repr": "CSc1ncc(C(=O)NCCN2CCOCC2)c(Nc2ccc3[nH]ncc3c2)n1",
    "assay-value": 10
  },
  {
    "smiles-repr": "CSc1ncc(C(=O)NCc2cccnc2)c(Nc2ccc3[nH]ncc3c2)n1",
    "assay-value": 53
  },
  {
    "smiles-repr": "CSc1ncc(C(=O)NCc2cccnc2)c(Nc2ccc3cn[nH]c3c2)n1",
    "assay-value": 55
  },
  {
    "smiles-repr": "CC[C@H](CO)NC(=O)c1cnc(SC)nc1Nc1ccc2cn[nH]c2c1",
    "assay-value": 36
  },
  {
    "smiles-repr": "CSc1ncc(C(=O)N2CCN(CCO)CC2)c(Nc2ccc3cn[nH]c3c2)n1",
    "assay-value": 15
  }
]

---

Assay: Cytotoxicity test on HepG2 cells (MTT)
Format: cell-based
Conditions: human, read-out: Cytotoxity on HepG2, IC50 (50% Inhibitory Concentration)

[
  {
    "smiles-repr": "CNC(=O)c1cnc(SC)nc1Nc1ccc2cn[nH]c2c1",
    "IC50": "> 100 µg/mL"
  },
  {
    "smiles-repr": "CSc1ncc(C(=O)NCCO)c(Nc2ccc3cn[nH]c3c2)n1",
    "IC50": "> 100 µg/mL"
  },
  {
    "smiles-repr": "CNC(=O)c1cnc(SC)nc1Nc1ccc2[nH]ncc2c1",
    "IC50": "> 100 µg/mL"
  }
]

---

Biological target: HBV polymerase (Hepatitis B virus genotype A2 subtype adw2)
Construct: made in house; host or cells: E. coli
Assay: In vitro reverse transcription activity of HBV polymerase (ELISA-type, DIG/biotin nucleotides)
Type: biochemical
Settings: 1 μg/ml test compound; read-out: Inhibition activity on HBV-RT (%)
Returns one of yes or no; yes when inhibition at 1 µg/mL is >= 80%.

[
  {
    "smiles-repr": "CSc1ncc(C(=O)N(C)CCO)c(Nc2ccc3cn[nH]c3c2)n1",
    "category-label": "no"
  },
  {
    "smiles-repr": "CNC(=O)c1cnc(SC)nc1Nc1ccc2[nH]ncc2c1",
    "category-label": "yes"
  },
  {
    "smiles-repr": "COCCNC(=O)c1cnc(SC)nc1Nc1ccc2[nH]ncc2c1",
    "category-label": "no"
  },
  {
    "smiles-repr": "CSc1ncc(C(=O)N(C)CCO)c(Nc2ccc3[nH]ncc3c2)n1",
    "category-label": "no"
  },
  {
    "smiles-repr": "CSc1ncc(C(=O)N(C)C)c(Nc2ccc3cn[nH]c3c2)n1",
    "category-label": "no"
  },
  {
    "smiles-repr": "CC[C@H](CO)NC(=O)c1cnc(SC)nc1Nc1ccc2cn[nH]c2c1",
    "category-label": "yes"
  },
  {
    "smiles-repr": "CSc1ncc(C(=O)NCCCn2ccnc2)c(Nc2ccc3cn[nH]c3c2)n1",
    "category-label": "yes"
  },
  {
    "smiles-repr": "CSc1ncc(C(=O)NCCc2ccccn2)c(Nc2ccc3[nH]ncc3c2)n1",
    "category-label": "yes"
  },
  {
    "smiles-repr": "CSc1ncc(C(=O)NCCN(C)C)c(Nc2ccc3cn[nH]c3c2)n1",
    "category-label": "yes"
  },
  {
    "smiles-repr": "CSc1ncc(C(=O)N2CCN(CCO)CC2)c(Nc2ccc3[nH]ncc3c2)n1",
    "category-label": "no"
  },
  {
    "smiles-repr": "CSc1ncc(C(=O)NC2CC2)c(Nc2ccc3cn[nH]c3c2)n1",
    "category-label": "no"
  },
  {
    "smiles-repr": "CSc1ncc(C(=O)NN2CCOCC2)c(Nc2ccc3[nH]ncc3c2)n1",
    "category-label": "yes"
  },
  {
    "smiles-repr": "CSc1ncc(C(=O)N2CCN(C)CC2)c(Nc2ccc3cn[nH]c3c2)n1",
    "category-label": "no"
  },
  {
    "smiles-repr": "CSc1ncc(C(=O)N(C)C)c(Nc2ccc3[nH]ncc3c2)n1",
    "category-label": "no"
  },
  {
    "smiles-repr": "CCNC(=O)c1cnc(SC)nc1Nc1ccc2[nH]ncc2c1",
    "category-label": "no"
  },
  {
    "smiles-repr": "CNC(=O)c1cnc(SC)nc1Nc1ccc2cn[nH]c2c1",
    "category-label": "yes"
  },
  {
    "smiles-repr": "CSc1ncc(C(=O)NCCO)c(Nc2ccc3[nH]ncc3c2)n1",
    "category-label": "yes"
  }
]

---

Recorded Inhibition of HIV reverse transcriptase activity by entry
Molecular target: HIV reverse transcriptase (Human immunodeficiency virus type 1 group M subtype B)
Construct: activities of HIV reverse transcriptase; purchased Boehringer Mannheim
Assay: In vitro HIV reverse transcriptase activity (non-radioactive reverse transcriptase assay kit)
Format: biochemical
Conditions: 1 μg/ml test compound
endpoint: Inhibition of HIV reverse transcriptase activity (%)

[
  {
    "molecule": "CSc1ncc(C(=O)N(C)C)c(Nc2ccc3cn[nH]c3c2)n1 [Example 16]",
    "unit-tag": "%",
    "assay-value": 81
  },
  {
    "molecule": "CSc1ncc(C(=O)N(C)CCO)c(Nc2ccc3cn[nH]c3c2)n1 [Example 10]",
    "unit-tag": "%",
    "assay-value": 80
  },
  {
    "molecule": "CSc1ncc(C(=O)NC2CC2)c(Nc2ccc3cn[nH]c3c2)n1 [Example 6]",
    "unit-tag": "%",
    "assay-value": 78
  },
  {
    "molecule": "CCNC(=O)c1cnc(SC)nc1Nc1ccc2[nH]ncc2c1 [Example 5]",
    "unit-tag": "%",
    "assay-value": 80
  }
]
